- test.target: OR11H1 (Homo sapiens) (UniProt Q8NG94)
- Sequence (Q8NG94 whole entry): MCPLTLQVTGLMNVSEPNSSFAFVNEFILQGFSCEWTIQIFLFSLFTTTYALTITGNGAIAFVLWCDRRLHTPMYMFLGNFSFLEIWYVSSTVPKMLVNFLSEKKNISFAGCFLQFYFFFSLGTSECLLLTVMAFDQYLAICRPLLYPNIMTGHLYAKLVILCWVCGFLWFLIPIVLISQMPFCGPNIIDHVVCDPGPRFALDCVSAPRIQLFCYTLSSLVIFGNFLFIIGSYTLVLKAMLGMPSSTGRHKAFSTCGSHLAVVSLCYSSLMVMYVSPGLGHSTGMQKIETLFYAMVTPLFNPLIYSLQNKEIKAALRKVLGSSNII
- condition: stereoisomer not certain
observable: odorant receptor agonist call

Completed entries (count: 5):
1. CC1=NC(C)C(C)S1 (centres undefined) :: inactive
2. CCCCCC(=O)C(C)C(C)=O (centres undefined) :: inactive
3. CC(CO)CS (centres undefined) :: inactive
4. CC(=O)c1c(C)c([N+](=O)[O-])c(C(C)(C)C)c([N+](=O)[O-])c1C :: inactive
5. CCCCC(S)C(C)CO (centres undefined) :: inactive

Consider the molecule CC1CCCCCCCCCCCCC(=O)C1 (centres undefined) . State its measured odorant receptor agonist call.
inactive

Consider the molecule CCCCCC(S)C(C)CO (centres undefined) . State its measured odorant receptor agonist call.
inactive

Consider the molecule Cc1cnc(C)c(C)n1 . State its measured odorant receptor agonist call.
inactive

Consider the molecule CC1=C(O)C(=O)C(C)O1 (centres undefined) . State its measured odorant receptor agonist call.
inactive

---

- test.target: OR51E1 (Homo sapiens)
- condition: stereoisomer not certain
Permitted responses: active, inactive

Solved entries:
1) CCCCCC(=O)C(C)C(C)=O (stereo not drawn) :: inactive
2) CCCCOC=O :: inactive
3) CCC(S)C(C)CO (stereo not drawn) :: inactive
4) CCOC(=O)C(C)C :: inactive
5) CC(C)=CCCC(C)=CCO :: inactive
6) CCC(=O)O :: inactive

Tell me the recorded outcome of this test for CCCCCCCCCCCCCC(=O)O .
inactive

Tell me the recorded outcome of this test for CCCCCOC(=O)CCCCC .
inactive

---

- test.target: OR52N4 (Homo sapiens) (UniProt Q8NGI2)
- Sequence (Q8NGI2 whole entry): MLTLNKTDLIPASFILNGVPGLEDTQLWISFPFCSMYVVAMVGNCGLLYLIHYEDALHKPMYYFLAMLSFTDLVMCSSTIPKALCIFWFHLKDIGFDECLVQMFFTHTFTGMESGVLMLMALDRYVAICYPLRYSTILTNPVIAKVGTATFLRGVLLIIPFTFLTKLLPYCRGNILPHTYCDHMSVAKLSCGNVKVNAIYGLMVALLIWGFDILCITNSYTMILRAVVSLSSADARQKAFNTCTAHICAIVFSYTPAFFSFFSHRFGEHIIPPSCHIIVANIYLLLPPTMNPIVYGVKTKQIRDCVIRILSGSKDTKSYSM
- condition: stereoisomer not certain
observable: odorant receptor agonist call

Completed entries (count: 8):
1) CCCCCC1CCCC(=O)O1 (stereo unspecified) :: inactive
2) Cc1cnc(C)c(C)n1 :: inactive
3) CC(=O)c1c(C)c([N+](=O)[O-])c(C(C)(C)C)c([N+](=O)[O-])c1C :: inactive
4) CCC1OC(C)=C(O)C1=O (stereo unspecified) :: inactive
5) CC1CCCCCCCCCCCCC(=O)C1 (stereo unspecified) :: inactive
6) CCCC(S)CCOC(C)=O (stereo unspecified) :: inactive
7) CCC1OC(=O)C(O)=C1C (stereo unspecified) :: inactive
8) CC1=C(O)C(=O)OC1C (stereo unspecified) :: inactive

Consider the compound CCCCCCC=CCCC=O . State its measured odorant receptor agonist call.
inactive

Consider the compound CC1=NC(C)C(C)S1 (stereo unspecified) . State its measured odorant receptor agonist call.
inactive

Consider the compound CCCCCC(=O)C(C)C(C)=O (stereo unspecified) . State its measured odorant receptor agonist call.
inactive

---

- test.target: OR9A4 (Homo sapiens) (UniProt Q8NGU2)
- Sequence (whole entry): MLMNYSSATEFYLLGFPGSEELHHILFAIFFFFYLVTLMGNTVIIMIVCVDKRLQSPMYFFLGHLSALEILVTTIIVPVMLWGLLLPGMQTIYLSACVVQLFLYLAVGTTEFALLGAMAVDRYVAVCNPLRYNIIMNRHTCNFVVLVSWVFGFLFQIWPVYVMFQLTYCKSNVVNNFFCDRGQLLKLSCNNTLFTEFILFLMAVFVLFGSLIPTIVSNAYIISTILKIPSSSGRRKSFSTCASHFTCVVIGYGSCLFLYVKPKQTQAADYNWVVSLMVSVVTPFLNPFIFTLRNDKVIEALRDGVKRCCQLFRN
- condition: stereoisomer not certain
observable: odorant receptor agonist call

Completed entries (count: 5):
1. CC1CCCCCCCCCCCCC(=O)C1 (stereo unspecified) :: inactive
2. CCC1OC(C)=C(O)C1=O (stereo unspecified) :: inactive
3. CC(=O)c1c(C)c([N+](=O)[O-])c(C(C)(C)C)c([N+](=O)[O-])c1C :: inactive
4. CC1=C(O)C(=O)C(C)O1 (stereo unspecified) :: inactive
5. CCCCCC(=O)C(C)C(C)=O (stereo unspecified) :: inactive

Please examine the following record next.
Consider the molecule Cc1cnc(C)c(C)n1 . State its measured odorant receptor agonist call.
inactive

The values you see were collected from the M2OR odorant receptor database.
